Test: yeast display, Sf9 membrane polyspecificity reagent, FACS + sequencing; frameworks hold sequencing errors
measurement.label: polyreactivity (PSR sort gate)

Query: I am curious: what polyreactivity (PSR sort gate) value has been reported for QVQLVESGGGLVQAGGSLRLSCAASGFIFTQYAMGWYRQAPGKERELVAAISTSGGRTFYADSVKGRFTISRDNAKNTVYLQMNSLKPEDTAVYYCGARPGYLYDYWGQGTQVTVSS ?
Response: high polyreactivity

Query: I am curious: what polyreactivity (PSR sort gate) value has been reported for QVQLVESGGGLVQAGGSLRLSCAASGNIFSRYAMGWYRQAPGKERELVAAISSSGGTTYYADSVKGRFTISRDNAKNTVYLHMNSLKPEDTAVYYCNARRRQIYSEFGYWGQGTQVTVSS ?
Response: high polyreactivity

These measurements were taken from the nanobody polyreactivity screen of Harvey et al. (2022).
